test: Stability of PSMA substrates in human plasma, 18 hour incubation, HPLC; assay type: in vitro ADME; conditions: 18 hour incubation in human plasma; HPLC peak area of starting material over all peaks; read-out: % Prodrug Remaining
quantityKind: remaining at 18 h (%)
Answers are plain numbers, in %.

Guide cases for remaining at 18 h, answers given:
# molecule, quantityKind, readoutValue
measured = [
    ("CN(Cc1cnc2nc(N)nc(N)c2n1)c1ccc(C(=O)N[C@@H](CCC(=O)N[C@@H](CCC(=O)N[C@@H](CCC(=O)N[C@@H](CCC(=O)N[C@@H](CCC(=O)O)C(=O)O)C(=O)O)C(=O)O)C(=O)O)C(=O)O)cc1 [APA-Glu*Glu*Glu*Glu*Glu, reference compound]", "remaining at 18 h", 11),
    ("CN(Cc1cnc2nc(N)nc(N)c2n1)c1ccc(C(=O)N[C@@H](CC(=O)O)C(=O)N[C@@H](CCC(=O)N[C@@H](CCC(=O)N[C@@H](CC(=O)O)C(=O)N[C@@H](CCC(=O)O)C(=O)O)C(=O)O)C(=O)O)cc1", "remaining at 18 h", 100),
]

Problem: Return reported remaining at 18 h; argument: CN(Cc1cnc2nc(N)nc(N)c2n1)c1ccc(C(=O)N[C@@H](CCC(=O)N[C@@H](CCC(=O)N[C@@H](CCC(=O)N[C@@H](CCC(=O)N[C@@H](CC(=O)O)C(=O)O)C(=O)O)C(=O)O)C(=O)O)C(=O)O)cc1
Result: 20
